This listing pairs binders with measured koff.
target: T1, sRAGE (V-C1-C2) lot LP08062 (human, UniProt Q15109 23-342)
T1 construct: extracellular domain; also called Human RAGE; LP08062 (Rage)
T1 sequence (Q15109 23-342): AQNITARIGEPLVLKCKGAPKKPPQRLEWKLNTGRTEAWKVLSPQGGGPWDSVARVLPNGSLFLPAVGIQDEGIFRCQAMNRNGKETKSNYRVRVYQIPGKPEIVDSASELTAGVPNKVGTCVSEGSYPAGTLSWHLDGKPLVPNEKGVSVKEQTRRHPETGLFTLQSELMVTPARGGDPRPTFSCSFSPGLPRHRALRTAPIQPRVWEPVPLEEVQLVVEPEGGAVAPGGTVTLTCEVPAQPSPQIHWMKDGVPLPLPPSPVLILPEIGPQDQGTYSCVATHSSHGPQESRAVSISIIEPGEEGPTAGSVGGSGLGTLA
assay protocol: SPR (Biacore), mAb captured on anti-mouse Fc, sRAGE 15 nM, 1:1 Langmuir
Enter your answer as a number in s⁻¹; do not include the unit.

Observe how each entry below is paired with its result.
# binder, measured attribute, measure unit, observed value
rows = [
    ("130 RAGE-1 (antibody, V domains shown, Hybridoma monoclonal antibody, captured on anti-mouse Fc in Biacore; also called Protein 130 RAGE-1) VH: EVQLVESGGGLVKPGGSLKLSCAASGFTFSSYVMSWVRQSPEKRLEWVAEISSGGSYTYYPDTVTGRFTISRDNDKNTLYLEMSSLRSEDTAMYYCARPPYGKDAMDYWGQGTSVTVSS VL: QIVLTQSPAIMSASPGEKVTMTCSASSSVSYMHWYQQKSGTSPKRWISDTSKLASGVPARFSGSGSGTSYSLTISSMEAEDAATYYCQQWSSNPPTFGGGTKLEIK", "koff", "s⁻¹", 0.00136),
    ("152 RAGE-1 (antibody, V domains shown, Hybridoma monoclonal antibody, captured on anti-mouse Fc in Biacore; also called LP08104; Protein 152 RAGE-1) VH: DVQLQESGPDLVKPSQSLSLTCTVTGYSITSGYSWHWIRQFPGNKLEWMGYIHYSGSTNYNPSLKSRISITRDTSKNQFFLQLNSVTTEDTATYYCARGGDFAYWGQGTLVTVSA VL: DIVLTQSPASLAVSLGQRATISCRASKSVGTSDSSYMHWYQQKPGQPPKLLIYLASNLESGVPARFSGSGSGTDFTLNIHPVEEEDAATYYCQHSRELYTFGGGTKLEIK", "koff", "s⁻¹", 0.00265),
    ("140 RAGE-1 (antibody, V domains shown, Hybridoma monoclonal antibody, captured on anti-mouse Fc in Biacore; also called Protein 140 RAGE-1) VH: QVQLQQPGAELVKPGASVRLSCKASGYTFTSYWMHWVKQRPGQGLEWIGEINPSNGRTNYNEKFKSKATLTVDKSSSTAYMQLSSLTSEDSAVYYCARDGLGYRPIAMDYWGQGTSVTVSS VL: QIVLTQSPAIMSASPGEKVTISCSASSSVSYMYWYQQKPGSSPKPWIYRTSNLASGVPARFSGSGSGTSYSLTISSMEAEDAATYYCQQYHSYPPMYTFGGGTKLEIK", "koff", "s⁻¹", 0.00157),
    ("95 RAGE-1 (antibody, V domains shown, Hybridoma monoclonal antibody, captured on anti-mouse Fc in Biacore; also called Protein 95 RAGE-1) VH: QVQLQQPGAELVKPGASVKLSCKASGYTFTSYWMHWVKQRPGQGLEWIGESNPSNGRTNYNEKFKNKATLTVDKSSSTAYMQLSSLTSEDSAVYYCARAPYYGFDYWGQGTTLTVSS VL: QAVVTQESALTTSPGETVTLTCRSSTGAVTTSNYANWVQEKPDHLFTGLTGGTNNRAPGVPARFSGSLIGDKAALTITGAQTEDEAIYFCALWYSNHWVFGGGTKLTVL", "koff", "s⁻¹", 0.00123),
]

# get_value(readout='koff', item= 56 RAGE-1 (antibody, V domains shown, Hybridoma monoclonal antibody, captured on anti-mouse Fc in Biacore; also called LP08103; Protein 56 RAGE-1) VH: QVQLQQSGPELVKPGASVRISCKASGYTFTSYFIHWVKQRPGQGLEWIGWIYPGNVNTKYNEKFKDKATLTADKSSSTAYMQLSNLTSEDSAVYFCVRGQLGDYWGQGITLTVSS VL: DIVMTQSQKFMSTSVGDRVSVTCKASQNVGINVAWYQQKPGQSPKALIYSASYRYSGVPDRFTGSGSGTDFTLIISNVQSEDLAEYFCQQYNNYPRTFGGGTKLEIK )
0.00539
